Ref: paper PMC4168161

system: P. falciparum CoA synthesis pathway; assay: Coenzyme A chemical rescue assay on P. falciparum; format: cell-based, Plasmodium falciparum; conditions: compound at ~ IC80, with CoA supplementation
MEASURE_NAME: CoA rescue (relative parasite number, % of untreated control)

Ask: Indicate its recorded CoA rescue (relative parasite number, % of untreated control); the compound in question is CC(=O)c1ccc2c3c(onc13)-c1ccccc1C2=O
Result: 50% rescue at ~ IC80

Ask: Indicate its recorded CoA rescue (relative parasite number, % of untreated control); the compound in question is CC(C)=NOC(=O)c1c(C)noc1-c1snnc1C
Result: 50% rescue at ~ IC80

Ask: Indicate its recorded CoA rescue (relative parasite number, % of untreated control); the compound in question is CCc1ccc(Nc2cc(C)c3ccc(O)cc3n2)cc1.Cl
Result: 80% rescue at ~ IC80

Ask: Indicate its recorded CoA rescue (relative parasite number, % of untreated control); the compound in question is Cc1csc(Sc2ncnc3sccc23)n1
Result: 80% rescue at ~ IC80

###

tested on: P. falciparum CoA synthesis pathway; test: Coenzyme A chemical rescue assay on P. falciparum; type: cell-based, Plasmodium falciparum; settings: at 2 μM compound, with CoA supplementation
Consider the following compounds; for each one, report its CoA rescue (relative parasite number, % of untreated control).
Express it in % rescue at 2 μM; write the number only.

Ask: Indicate its recorded CoA rescue (relative parasite number, % of untreated control); the compound in question is Cc1ccc(C(C)C)c(OCc2nc3ccccc3n2C)c1
Result: 80

Ask: Indicate its recorded CoA rescue (relative parasite number, % of untreated control); the compound in question is OC1CCCCC1C1(NC(=S)Nc2ccccc2)CCCCC1 (stereo not drawn)
Result: 80

Ask: Indicate its recorded CoA rescue (relative parasite number, % of untreated control); the compound in question is CC(=O)C1=C(c2ccccc2)C(=O)c2ccccc2C1=O
Result: 80

Ask: Indicate its recorded CoA rescue (relative parasite number, % of untreated control); the compound in question is COc1ccc2c(=O)cc(C(Cl)(Cl)Cl)oc2c1
Result: 80

Ask: Indicate its recorded CoA rescue (relative parasite number, % of untreated control); the compound in question is CC1=CC(=O)C(C(C)C)=C/C1=N/OS(=O)(=O)c1ccccc1
Result: 50

Ask: Indicate its recorded CoA rescue (relative parasite number, % of untreated control); the compound in question is CCOc1ccc(Nc2c3ccccc3nc3ccccc23)cc1.Cl
Result: 80

###

molecular target: P. falciparum CoA synthesis pathway; experiment: Coenzyme A chemical rescue assay on P. falciparum; type: cell-based, Plasmodium falciparum; conditions: eight-point dose response, fixed CoA (0.8-2 mM), n = 2
MEASURE_NAME: IC50 shift upon CoA supplementation

// worked examples, IC50 shift upon CoA supplementation included
- COMPOUND: "CC(=O)C1=C(c2ccccc2)C(=O)c2ccccc2C1=O"
  IC50 shift upon CoA supplementation: "more than doubled"
- COMPOUND: "CC1=CC(=O)C(C(C)C)=C/C1=N/OS(=O)(=O)c1ccccc1"
  IC50 shift upon CoA supplementation: "greater than six times"
- COMPOUND: "CC(=O)c1ccc2c3c(onc13)-c1ccccc1C2=O"
  IC50 shift upon CoA supplementation: "greater than six times"
- COMPOUND: "OC1CCCCC1C1(NC(=S)Nc2ccccc2)CCCCC1 (stereo not shown)"
  IC50 shift upon CoA supplementation: "more than doubled"
- COMPOUND: "Cc1csc(Sc2ncnc3sccc23)n1"
  IC50 shift upon CoA supplementation: "greater than six times"
- COMPOUND: "CCOc1ccc(Nc2c3ccccc3nc3ccccc23)cc1.Cl"
  IC50 shift upon CoA supplementation: "1.5 times"
- COMPOUND: "CCc1ccc(Nc2cc(C)c3ccc(O)cc3n2)cc1.Cl"
  IC50 shift upon CoA supplementation: "more than doubled"
- COMPOUND: "CC(C)=NOC(=O)c1c(C)noc1-c1snnc1C"
  IC50 shift upon CoA supplementation: "1.5 times"
- COMPOUND: "Cc1ccc(C(C)C)c(OCc2nc3ccccc3n2C)c1"
  IC50 shift upon CoA supplementation: "1.5 times"

Next, consider the following compound.
Ask: Indicate its recorded IC50 shift upon CoA supplementation; the compound in question is COc1ccc2c(=O)cc(C(Cl)(Cl)Cl)oc2c1
Result: greater than six times
